# System: E18 rat cortical neuron-glia co-culture
# procedureText: fiber score / MBP score (myelination specific beyond OL differentiation) (ratio); higher = more myelination-specific MBP alignment
# conditionLabel: 1 µM; treatment time: 8 days (DIV5-DIV13)
readoutName: fiber score / MBP score

compound="COc1cccc(C2(O)CCCCC2CN(C)C)c1 (centres undefined) [Tramadol]" measuredresult=0.793
compound="C[C@]12CC[C@H](O)CC1=CC[C@@H]1[C@@H]2CC[C@@]2(C)[C@H]1CC[C@]2(C)O [Methandriol]" measuredresult=0.712
compound="CC(C)CC(N(C)C)C1(c2ccc(Cl)cc2)CCC1 (centres undefined) [Sibutramine]" measuredresult=0.819
compound="COc1ccc2[nH]cc(CCN)c2c1 [5-Methoxytryptamine]" measuredresult=0.779
compound="CC[C@@H]1C=CC=CC[C@H](C)[C@@H](O)[C@@H](C)C(=O)[C@H](C)[C@@H](O)[C@H](C)C(=O)[C@H](C)[C@@H](O)[C@H](C)C=CC(=O)O[C@H]2[C@@H](C)[C@@H](CC1)O[C@@]1(CC[C@@H](C)[C@@H](C[C@H](C)O)O1)[C@@H]2C [Oligomycin C]" measuredresult=0.799
compound=CN1CC[C@]2(c3cccc(O)c3)Cc3nc4ccccc4cc3C[C@H]2C1 measuredresult=0.572
compound="CN(C)C(=O)Oc1ccc[n+](C)c1 [Pyridostigmine Bromide]" measuredresult=0.691
compound="CN1CC[C@]23CCCC[C@H]2[C@H]1Cc1ccc(O)cc13 [Levorphanol]" measuredresult=0.869
compound="CNC1CC(c2ccc(Cl)c(Cl)c2)c2ccccc21 (centres undefined) [Indatraline]" measuredresult=0.417

----------
# Tested on: E18 rat cortical neuron-glia co-culture
# procedureText: myelination (MBP fiber length per Olig2+ nucleus), % of 1 µM DAPT response (DMSO = 0) (% of DAPT); higher = more myelination, active = 50 or more
# conditionLabel: 5 µM; treatment time: 8 days (DIV5-DIV13)
Outcomes: active, inactive

compound="CNC1=Nc2ccc(Cl)cc2C(c2ccccc2)=[N+]([O-])C1 [Chlordiazepoxide]" grouplabel=inactive
compound=COc1cc2c(cc1OC)[C@@]13CCN4CC5=CCO[C@H]6CC(=O)N2[C@H]1[C@H]6[C@H]5C[C@H]43 grouplabel=inactive
compound=CC[C@]1(O)CC[C@H]2[C@@H]3CCC4=CCCC[C@@H]4[C@H]3CC[C@@]21C grouplabel=active
compound="CC(NC(C)(C)C)C(=O)c1cccc(Cl)c1 (stereo not given)" grouplabel=inactive
compound=CN1CC[C@@H](c2ccc(F)cc2)[C@H](COc2ccc3c(c2)OCO3)C1 grouplabel=inactive
compound=CCN(CC)CCOC(=O)C(O)(c1ccccc1)c1ccccc1 grouplabel=inactive
compound=CN1C(=O)CN=C(c2ccccc2)c2cc([N+](=O)[O-])ccc21 grouplabel=inactive
compound="CNCC(O)c1ccc(O)cc1 (stereo not given) [Synephrine]" grouplabel=inactive
compound=CC(C)(O)[C@@H]1[C@H]2OC(=O)[C@@H]1[C@]1(O)C[C@H]3O[C@]34C(=O)O[C@H]2[C@]14C grouplabel=inactive
compound=c1ccc(Cn2ccnc2)cc1 grouplabel=inactive

----------
Examples of compounds with documented myelination follow.
# Tested on: E18 rat cortical neuron-glia co-culture
# procedureText: myelination (MBP fiber length per Olig2+ nucleus), % of 1 µM DAPT response (DMSO = 0) (% of DAPT); higher = more myelination, active = 50 or more
# conditionLabel: 1 µM; treatment time: 8 days (DIV5-DIV13)
readoutName: myelination

compound=C[C@]12CC[C@H]3[C@@H](CCC4=CC(=O)CC[C@@H]43)[C@@H]1CC[C@@H]2O measuredresult="-3.41 (inactive)"
compound=O=C(O)CCCc1ccc(N(CCCl)CCCl)cc1 measuredresult="-6.49 (inactive)"
compound=CN1C(=O)CN=C(c2ccccc2)c2cc([N+](=O)[O-])ccc21 measuredresult="-11 (inactive)"
compound="COc1cc(N)c(Cl)cc1C(=O)NC1CN2CCC1CC2 (centres undefined) [Zacopride]" measuredresult="-11.9 (inactive)"
compound=COc1ccc2c(c1)[C@]13CCCC[C@@H]1[C@H](C2)N(C)CC3 measuredresult="5.05 (inactive)"
compound=O=C1CN=C(c2ccccc2)c2cc([N+](=O)[O-])ccc2N1 measuredresult="-6.44 (inactive)"
compound=CN1[C@@H]2CC[C@H]1C[C@@H](OC(=O)[C@H](CO)c1ccccc1)C2 measuredresult="-15.1 (inactive)"
compound=CN1C(=O)CN=C(c2ccccc2)c2cc(Cl)ccc21 measuredresult="-8.32 (inactive)"
compound=N=C(NCc1ccc(Cl)cc1)SCCCc1c[nH]cn1 measuredresult="-13 (inactive)"
